Data origin, for the record: patent US20250009745A1

The following compounds are listed with their measured IC50 values.
TARGET_ENTITY: CDK2 (Homo sapiens, UniProt P24941)
Construct: purchased Carna Company
ASSAY_PROCEDURE: CDK enzymology experiment in vitro, capillary mobility shift assay (MSA)
Assay type: biochemical
MEASUREMENT_SETUP: read-out: CDK2 (nM) inhibitory IC50

compound="Cn1cc(S(=O)(=O)N2CCC(Nc3ncc(C#N)c(N[C@@H]4CCC[C@@]4(C)O)n3)CC2)cn1 (racemic) [Example 19]" reported_property=IC50 recorded_measurement="2.5 to 10 nM"
compound=CN1CCN(c2ccc(S(=O)(=O)N3CCC(Nc4ncc(C(F)(F)F)c(O[C@H]5CCOC5)n4)CC3)cc2)CC1 reported_property=IC50 recorded_measurement="< 0.5 nM"

Identify the reported IC50 for the following entry. Cc1cc(S(=O)(=O)N2CCC(Nc3ncc(C(F)(F)F)c(O[C@H]4CCOC4)n3)CC2)ccc1N1CCNCC1 < 0.5 nM

Identify the reported IC50 for the following entry. O=S(=O)(c1ccc(C2CCNC2)cc1)N1CCC(Nc2ncc(C(F)(F)F)c(O[C@H]3CCOC3)n2)CC1 (some centres unmarked) < 0.5 nM

* * *

TARGET_ENTITY: CDK6 (Homo sapiens, UniProt Q00534)
Construct: purchased Carna Company
Sequence (Q00534 whole entry, one chain of several): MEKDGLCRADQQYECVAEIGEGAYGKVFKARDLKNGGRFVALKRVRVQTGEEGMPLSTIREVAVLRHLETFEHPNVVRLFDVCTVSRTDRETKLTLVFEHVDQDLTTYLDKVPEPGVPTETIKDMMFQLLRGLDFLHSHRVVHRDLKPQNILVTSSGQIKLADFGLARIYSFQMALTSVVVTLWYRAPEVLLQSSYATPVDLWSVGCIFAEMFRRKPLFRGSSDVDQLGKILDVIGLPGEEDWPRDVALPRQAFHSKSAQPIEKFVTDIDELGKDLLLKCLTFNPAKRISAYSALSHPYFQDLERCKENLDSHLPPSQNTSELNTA
ASSAY_PROCEDURE: CDK enzymology experiment in vitro, capillary mobility shift assay (MSA)
Type: biochemical
MEASUREMENT_SETUP: read-out: CDK6 (nM) inhibitory IC50
Description: CDK1/CDK2/CDK4/CDK6/CDK7/CDK9 were purchased from Carna Company; Carliper substrate CTD3/substrate 18/substrate 8 were purchased from Gil Biochemical Company; Dinaciclib/Palbociclib were purchased from Selleckchem Company; DMSO was purchased from Sigma Company; 384-well plates were purchased from Corning Company. […]
REPORTED_PROPERTY: IC50

Identify the reported IC50 for the following entry. Cc1cc(S(=O)(=O)N2CCC(Nc3ncc(C(F)(F)F)c(O[C@H]4CCOC4)n3)CC2)ccc1N1CCNCC1 [Compound 171] 0.5 to 2.5 nM

* * *

The following compounds are listed with their measured IC50 values.
TARGET_ENTITY: CDK6 (Homo sapiens, UniProt Q00534)
Construct: purchased Carna Company
ASSAY_PROCEDURE: CDK enzymology experiment in vitro, capillary mobility shift assay (MSA)
Type: biochemical
MEASUREMENT_SETUP: read-out: CDK6 (nM) inhibitory IC50

Below, 5 compounds whose answers are already recorded.
compound=CS(=O)(=O)N1CCC(Nc2cc(NC3CCCC3)c(C#N)cn2)CC1 reported_property=IC50 recorded_measurement="10 to 50 nM"
compound=C[C@H]1CN(c2ccc(S(=O)(=O)N3CCC(Nc4ncc(C(F)(F)F)c(O[C@H]5CCOC5)n4)CC3)cn2)C[C@H](C)N1 reported_property=IC50 recorded_measurement="0.5 to 2.5 nM"
compound=Cn1cc(-c2ccc(S(=O)(=O)N3CCC(Nc4ncc(C(F)(F)F)c(O[C@H]5CCOC5)n4)CC3)cc2)cn1 reported_property=IC50 recorded_measurement="0.5 to 2.5 nM"
compound="O=S(=O)(c1ccc(C2CCCNC2)c(F)c1)N1CCC(Nc2ncc(C(F)(F)F)c(O[C@H]3CCOC3)n2)CC1 (some centres unmarked)" reported_property=IC50 recorded_measurement="0.5 to 2.5 nM"
compound="Cc1cc(S(=O)(=O)N2CCC(Nc3ncc(C(F)(F)F)c(O[C@H]4CCOC4)n3)CC2)ccc1C1CCCNC1 (some centres unmarked)" reported_property=IC50 recorded_measurement="0.5 to 2.5 nM"

Identify the reported IC50 for the following entry. N#Cc1cnc(NC2CCN(S(=O)(=O)c3ccc(C4=CCNCC4)cc3)CC2)nc1NC1CCCC1(F)F (centres unmarked) 0.5 to 2.5 nM

Identify the reported IC50 for the following entry. O=S(=O)([C@@H]1CCCNC1)N1CCC(Nc2ncc(C(F)(F)F)c(NC3CCCC3)n2)CC1 10 to 50 nM

Identify the reported IC50 for the following entry. O=S(=O)(c1ccc(N2CC[C@@H](O)C2)cc1)N1CCC(Nc2ncc(C(F)(F)F)c(O[C@H]3CCOC3)n2)CC1 0.5 to 2.5 nM

Identify the reported IC50 for the following entry. N#Cc1cnc(NC2CCN(S(=O)(=O)c3ccc(C4=CCNCC4)cc3)CC2)nc1N[C@H]1CCOC1 0.5 to 2.5 nM

* * *

TARGET_ENTITY: CDK9 (Homo sapiens, UniProt P50750)
Construct: purchased Carna Company
Sequence (P50750 whole entry): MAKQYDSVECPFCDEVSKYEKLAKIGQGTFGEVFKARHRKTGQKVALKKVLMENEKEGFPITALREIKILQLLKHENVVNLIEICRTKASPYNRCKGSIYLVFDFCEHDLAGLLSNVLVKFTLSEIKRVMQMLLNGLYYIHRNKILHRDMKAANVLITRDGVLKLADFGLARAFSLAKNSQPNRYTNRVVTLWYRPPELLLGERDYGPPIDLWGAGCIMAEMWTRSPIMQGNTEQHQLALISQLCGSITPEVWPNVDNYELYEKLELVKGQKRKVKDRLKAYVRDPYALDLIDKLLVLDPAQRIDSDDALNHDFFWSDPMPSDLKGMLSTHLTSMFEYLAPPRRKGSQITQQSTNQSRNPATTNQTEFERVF
Sequence (O60563 whole entry partner): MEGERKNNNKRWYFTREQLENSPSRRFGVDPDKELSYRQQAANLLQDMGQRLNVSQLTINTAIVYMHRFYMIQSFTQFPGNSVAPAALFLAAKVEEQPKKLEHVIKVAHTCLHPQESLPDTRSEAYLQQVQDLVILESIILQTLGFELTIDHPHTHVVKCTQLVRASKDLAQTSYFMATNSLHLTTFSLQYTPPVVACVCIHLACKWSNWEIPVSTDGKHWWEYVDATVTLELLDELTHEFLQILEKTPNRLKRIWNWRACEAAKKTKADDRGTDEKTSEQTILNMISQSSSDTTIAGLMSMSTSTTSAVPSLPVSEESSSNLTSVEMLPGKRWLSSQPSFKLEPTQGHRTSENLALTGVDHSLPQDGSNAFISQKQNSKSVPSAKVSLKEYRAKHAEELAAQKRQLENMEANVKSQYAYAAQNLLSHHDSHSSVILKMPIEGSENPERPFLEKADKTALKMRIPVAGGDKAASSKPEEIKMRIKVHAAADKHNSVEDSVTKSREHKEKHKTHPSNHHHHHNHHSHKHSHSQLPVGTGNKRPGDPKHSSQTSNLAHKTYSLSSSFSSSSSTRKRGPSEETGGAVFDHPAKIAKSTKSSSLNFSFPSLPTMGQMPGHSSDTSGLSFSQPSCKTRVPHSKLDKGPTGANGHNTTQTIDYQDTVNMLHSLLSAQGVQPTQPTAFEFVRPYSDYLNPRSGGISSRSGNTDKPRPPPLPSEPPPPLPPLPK
ASSAY_PROCEDURE: CDK enzymology experiment in vitro, capillary mobility shift assay (MSA)
Assay type: biochemical
MEASUREMENT_SETUP: read-out: CDK9 (nM) inhibitory IC50
REPORTED_PROPERTY: IC50

Below, 5 compounds whose answers are already recorded.
compound=O=S(=O)(c1ccc(N2CCNCC2)cc1)N1CCC(Nc2ncc(C(F)(F)F)c(O[C@H]3CCOC3)n2)CC1 recorded_measurement="100 to 1000 nM"
compound=O=S(=O)(c1cnn(CCO)c1)N1CCC(Nc2ncc(C(F)(F)F)c(O[C@H]3CCOC3)n2)CC1 recorded_measurement="100 to 1000 nM"
compound="O=S(=O)(c1ccc([C@@H]2CCCNC2)cc1)N1CCC(Nc2ncc(C(F)(F)F)c(O[C@H]3CCOC3)n2)CC1 (single isomer, unassigned)" recorded_measurement="100 to 1000 nM"
compound=C[C@H]1CN(c2ccc(S(=O)(=O)N3CCC(Nc4ncc(C(F)(F)F)c(O[C@H]5CCOC5)n4)CC3)cc2)C[C@H](C)N1 recorded_measurement="100 to 1000 nM"
compound=O=S(=O)(c1ccc(C2=CCNCC2)cc1)N1CCC(Nc2ncc(C(F)(F)F)c(O[C@H]3CCOC3)n2)CC1 recorded_measurement="100 to 1000 nM"

Identify the reported IC50 for the following entry. Cn1cc(S(=O)(=O)N2CCC(Nc3ncc(C(F)(F)F)c(O[C@H]4CCOC4)n3)CC2)cn1 100 to 1000 nM

Identify the reported IC50 for the following entry. O=S(=O)(c1ccc(C2=CCCNC2)cc1)N1CCC(Nc2ncc(C(F)(F)F)c(O[C@H]3CCOC3)n2)CC1 100 to 1000 nM

Identify the reported IC50 for the following entry. O=S(=O)(c1ccc(N2CCNCC2)nc1)N1CCC(Nc2ncc(C(F)(F)F)c(O[C@H]3CCOC3)n2)CC1 100 to 1000 nM

Identify the reported IC50 for the following entry. O=S(=O)(c1ccc(C2CNC2)cc1)N1CCC(Nc2ncc(C(F)(F)F)c(O[C@H]3CCOC3)n2)CC1 100 to 1000 nM

Identify the reported IC50 for the following entry. C[C@@H]1CN(c2ccc(S(=O)(=O)N3CCC(Nc4ncc(C(F)(F)F)c(O[C@H]5CCOC5)n4)CC3)cn2)C[C@H](C)N1 100 to 1000 nM

Identify the reported IC50 for the following entry. CC1(O)CCN(c2ccc(S(=O)(=O)N3CCC(Nc4ncc(C(F)(F)F)c(O[C@H]5CCOC5)n4)CC3)cc2)CC1 50 to 100 nM

Identify the reported IC50 for the following entry. O=S(=O)(c1ccc([C@H]2CCCNC2)cc1)N1CCC(Nc2ncc(C(F)(F)F)c(O[C@H]3CCOC3)n2)CC1 (single isomer, unassigned) 100 to 1000 nM

Identify the reported IC50 for the following entry. Cn1cc(S(=O)(=O)N2CCC(Nc3ncc(C#N)c(NC4CCCC4)n3)CC2)cn1 100 to 1000 nM

Identify the reported IC50 for the following entry. Cn1cc(-c2ccc(S(=O)(=O)N3CCC(Nc4ncc(C(F)(F)F)c(O[C@H]5CCOC5)n4)CC3)cc2)cn1 10 to 50 nM

Identify the reported IC50 for the following entry. O=S(=O)(c1ccc(N2CC3(CNC3)C2)cc1)N1CCC(Nc2ncc(C(F)(F)F)c(O[C@H]3CCOC3)n2)CC1 100 to 1000 nM

Identify the reported IC50 for the following entry. CN(C)CCN(c1nc(NC2CCN(S(=O)(=O)c3cnn(C)c3)CC2)ncc1C#N)C1CCCC1 > 1000 nM

Identify the reported IC50 for the following entry. O=S(=O)(c1ccc([C@H]2CCNC2)cc1)N1CCC(Nc2ncc(C(F)(F)F)c(O[C@H]3CCOC3)n2)CC1 (single isomer, unassigned) 100 to 1000 nM

Identify the reported IC50 for the following entry. O=S(=O)(c1ccc(C2=CCNC2)cc1)N1CCC(Nc2ncc(C(F)(F)F)c(O[C@H]3CCOC3)n2)CC1 100 to 1000 nM

Identify the reported IC50 for the following entry. Cc1cc(S(=O)(=O)N2CCC(Nc3ncc(C(F)(F)F)c(O[C@H]4CCOC4)n3)CC2)ccc1C1=CCNCC1 100 to 1000 nM

* * *

The following molecules are listed with their measured IC50 values.
TARGET_ENTITY: CDK4 (Homo sapiens, UniProt P11802)
Construct: purchased Carna Company
Sequence (P11802 whole entry): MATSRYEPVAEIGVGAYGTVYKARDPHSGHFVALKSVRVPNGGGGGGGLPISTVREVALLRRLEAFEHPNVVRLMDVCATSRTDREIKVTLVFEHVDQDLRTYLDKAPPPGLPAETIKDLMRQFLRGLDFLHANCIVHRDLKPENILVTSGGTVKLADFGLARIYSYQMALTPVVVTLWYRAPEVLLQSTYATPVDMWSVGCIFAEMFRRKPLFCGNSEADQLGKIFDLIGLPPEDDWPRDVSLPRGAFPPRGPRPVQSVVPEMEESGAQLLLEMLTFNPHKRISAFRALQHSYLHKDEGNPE
Sequence (P30281 whole entry partner): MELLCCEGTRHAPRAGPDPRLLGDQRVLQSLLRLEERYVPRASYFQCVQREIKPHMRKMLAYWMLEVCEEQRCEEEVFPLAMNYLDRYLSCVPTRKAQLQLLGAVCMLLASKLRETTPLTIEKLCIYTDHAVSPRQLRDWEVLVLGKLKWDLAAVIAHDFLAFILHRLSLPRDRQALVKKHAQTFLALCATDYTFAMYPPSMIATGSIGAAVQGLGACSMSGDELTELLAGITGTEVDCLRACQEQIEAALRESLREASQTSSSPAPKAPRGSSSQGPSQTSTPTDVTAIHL
ASSAY_PROCEDURE: CDK enzymology experiment in vitro, capillary mobility shift assay (MSA)
Format: biochemical
MEASUREMENT_SETUP: read-out: CDK4 (nM) inhibitory IC50

Below, 5 molecules whose answers are already recorded.
molecule=O=S(=O)(c1ccc(N2CC3(CNC3)C2)cc1)N1CCC(Nc2ncc(C(F)(F)F)c(O[C@H]3CCOC3)n2)CC1 reported_property=IC50 recorded_measurement="0.5 to 2.5 nM"
molecule="Cn1cc(S(=O)(=O)N2CCC(Nc3ncc(C(F)(F)F)c(O[C@H]4CCOC4)n3)[C@@H](F)C2)cn1 (stereo partly drawn)" reported_property=IC50 recorded_measurement="10 to 50 nM"
molecule=Cn1cc(-c2ccc(S(=O)(=O)N3CCC(Nc4ncc(C#N)c(N[C@@H]5CCC[C@H]5O)n4)CC3)cc2)cn1 reported_property=IC50 recorded_measurement="10 to 50 nM"
molecule="Cn1cc(S(=O)(=O)N2CCC(Nc3ncc(C#N)c(N[C@@H]4CC[C@@H](O)C4)n3)CC2)cn1 (single isomer, unassigned)" reported_property=IC50 recorded_measurement="10 to 50 nM"
molecule=C[C@H]1CN(c2ccc(S(=O)(=O)N3CCC(Nc4ncc(C(F)(F)F)c(O[C@H]5CCOC5)n4)CC3)cc2)C[C@H](C)N1 reported_property=IC50 recorded_measurement="0.5 to 2.5 nM"

We now examine a further molecule.
Identify the reported IC50 for the following entry. O=S(=O)(c1ccc(N2CC3CC(C2)N3)nc1)N1CCC(Nc2ncc(C(F)(F)F)c(O[C@H]3CCOC3)n2)CC1 0.5 to 2.5 nM
